Tested on: Avena fatua (AVEFA)
assay: Example B post-emergence herbicidal activity
Format: in vivo
run.conditions: 312 h, rate 250 g/ha, evaluated after 13 days, read-out: Post-emergence activity AVEFA (100=total damage to plant; 0=no damage to plant)
pest or weed control at 250 g/ha: recorded values

compound: CCc1sc(-c2ccc(F)cc2F)nc1C1C(=O)[C@@H]2CC[C@@H](C2)C1=O (stereo partly shown)
pest or weed control at 250 g/ha [%]: 90
--
compound: CSc1ccc(-c2nc(C3C(=O)[C@@H]4CC[C@@H](C4)C3=O)c(C)s2)cc1 (stereo partly shown)
pest or weed control at 250 g/ha [%]: 50
--
compound: CCc1sc(-c2ccc(Cl)c(F)c2)nc1C1C(=O)[C@@H]2CC[C@@H](C2)C1=O (stereo partly shown)
pest or weed control at 250 g/ha [%]: 100
--
compound: Cc1sc(-c2ccc(OC(F)F)cc2F)nc1C1C(=O)[C@@H]2CC[C@@H](C2)C1=O (stereo partly shown)
pest or weed control at 250 g/ha [%]: 100

---

pest or weed control at 250 g/ha: recorded values
Test system: Avena fatua (AVEFA)
assay: Example B post-emergence herbicidal activity
Type: in vivo
run.conditions: 312 h, rate 250 g/ha, evaluated after 13 days, read-out: Post-emergence activity AVEFA (100=total damage to plant; 0=no damage to plant)

compound: CCc1sc(-c2ccc(C)cc2)nc1C1=C(OC(C)=O)[C@H]2CC[C@H](C2)C1=O
pest or weed control at 250 g/ha: 90%
--
compound: CCc1sc(-c2ccc(Cl)cc2)[n+]([O-])c1C1C(=O)[C@@H]2CC[C@@H](C2)C1=O (stereo partly shown)
pest or weed control at 250 g/ha: 0%
--
compound: Cc1sc(-c2ccc(Cl)c(C(F)(F)F)c2)nc1C1=C(OC(=O)C(C)(C)C)[C@H]2CC[C@H](C2)C1=O
pest or weed control at 250 g/ha: 0%
--
compound: CCc1sc(-c2c(C)cc(Cl)cc2F)nc1C1C(=O)[C@@H]2CC[C@@H](C2)C1=O (stereo partly shown)
pest or weed control at 250 g/ha: 100%
--
compound: CCc1sc(-c2ccsc2)nc1C1C(=O)[C@@H]2CC[C@@H](C2)C1=O (stereo partly shown)
pest or weed control at 250 g/ha: 0%
--
compound: CCc1sc(-c2ccc(OC(C)C)c(Cl)c2)nc1C1C(=O)[C@@H]2CC[C@@H](C2)C1=O (stereo partly shown)
pest or weed control at 250 g/ha: 0%
--
compound: CCc1sc(-c2ccc(SC)cc2)nc1C1C(=O)[C@@H]2CC[C@@H](C2)C1=O (stereo partly shown)
pest or weed control at 250 g/ha: 100%
--
compound: CCc1sc(-c2ccc(Cl)cc2)nc1C1=C(OC(=O)C(C)(C)C)C2CCC(C2)C1=O (stereo not shown) [Compound P2]
pest or weed control at 250 g/ha: 100%
--
compound: Cc1sc(-c2ccc(Br)cc2)nc1C1C(=O)[C@H]2C[C@@H](C1=O)C2(C)C (stereo partly shown)
pest or weed control at 250 g/ha: 80%
--
compound: Cc1sc(-c2ccccc2Cl)nc1C1C(=O)[C@@H]2CC[C@@H](C2)C1=O (stereo partly shown)
pest or weed control at 250 g/ha: 0%
--
compound: Cc1sc(-c2ccc(Cl)c(Cl)c2)nc1C1=C(OC(=O)C(C)(C)C)[C@H]2CC[C@H](C2)C1=O
pest or weed control at 250 g/ha: 0%
--
compound: Cc1sc(-c2ccc(Cl)cc2F)nc1C1C(=O)[C@@H]2CC[C@@H](C2)C1=O (stereo partly shown)
pest or weed control at 250 g/ha: 90%
--
compound: CC(=O)OC1=C(c2nc(-c3ccc(Br)cc3C)sc2C)C(=O)[C@H]2CC[C@@H]1C2
pest or weed control at 250 g/ha: 90%
--
compound: CCc1sc(-c2c(F)cc(Cl)cc2F)nc1C1C(=O)[C@@H]2CC[C@@H](C2)C1=O (stereo partly shown)
pest or weed control at 250 g/ha: 100%
--
compound: CCOc1ccc(-c2nc(C3C(=O)[C@@H]4CC[C@@H](C4)C3=O)c(C)s2)cc1F (stereo partly shown)
pest or weed control at 250 g/ha: 0%
--
compound: O=C1C(c2nc(-c3ccc(Br)cc3)sc2CC(F)(F)F)C(=O)[C@H]2CC[C@@H]1C2 (stereo partly shown)
pest or weed control at 250 g/ha: 100%
--
compound: CCc1sc(-c2cc(F)c(Cl)cc2Cl)nc1C1C(=O)[C@@H]2CC[C@@H](C2)C1=O (stereo partly shown)
pest or weed control at 250 g/ha: 100%
--
compound: CCc1sc(-c2ccc(Br)cc2C)nc1C1C(=O)[C@@H]2CC[C@@H](C2)C1=O (stereo partly shown)
pest or weed control at 250 g/ha: 100%
--
compound: CCc1sc(-c2ccc(Cl)s2)nc1C1C(=O)[C@@H]2CC[C@@H](C2)C1=O (stereo partly shown)
pest or weed control at 250 g/ha: 20%
--
compound: CCOC(=O)COC1=C(c2sc(-c3ccc(Cl)cc3)nc2C)C(=O)[C@H]2CC[C@@H]1C2
pest or weed control at 250 g/ha: 20%
--
compound: Cc1scnc1C1C(=O)[C@@H]2CC[C@@H](C2)C1=O (stereo partly shown)
pest or weed control at 250 g/ha: 0%
--
compound: Cc1sc(-c2ccc3c(c2)OCCO3)nc1C1C(=O)[C@@H]2CC[C@@H](C2)C1=O (stereo partly shown)
pest or weed control at 250 g/ha: 0%
--
compound: Cc1sc(-c2cccs2)nc1C1C(=O)[C@@H]2CC[C@@H](C2)C1=O (stereo partly shown)
pest or weed control at 250 g/ha: 0%
--
compound: CCc1sc(-c2ccccc2Cl)nc1C1C(=O)[C@@H]2CC[C@@H](C2)C1=O (stereo partly shown)
pest or weed control at 250 g/ha: 0%
--
compound: COc1ccc(-c2nc(C3C(=O)[C@@H]4CC[C@@H](C4)C3=O)c(C)s2)cc1 (stereo partly shown)
pest or weed control at 250 g/ha: 80%
--
compound: Cc1sc(-c2ccc(Br)cn2)nc1C1=C(OC(=O)C2CC2)[C@@H]2CC[C@@H](C2)C1=O
pest or weed control at 250 g/ha: 90%
--
compound: Cc1nc(-c2ccc(Cl)cc2F)sc1C1C(=O)[C@@H]2CC[C@@H](C2)C1=O (stereo partly shown)
pest or weed control at 250 g/ha: 0%
--
compound: Cc1sc(-c2ccc(OC(C)C)c(Cl)c2)nc1C1C(=O)[C@@H]2CC[C@@H](C2)C1=O (stereo partly shown)
pest or weed control at 250 g/ha: 0%
--
compound: Cc1cc(Br)ccc1-c1nc(C2=C(OC(=O)C3CC3)[C@@H]3CC[C@@H](C3)C2=O)c(C)s1
pest or weed control at 250 g/ha: 90%
--
compound: O=C1C(c2csc(-c3ccc(Cl)cc3)n2)C(=O)[C@H]2CC[C@@H]1C2 (stereo partly shown)
pest or weed control at 250 g/ha: 0%
--
compound: CCc1sc(-c2ccc(OC)c(F)c2)nc1C1C(=O)[C@@H]2CC[C@@H](C2)C1=O (stereo partly shown)
pest or weed control at 250 g/ha: 100%
